STUDY_TARGET: CAT-Tip60 (221-512 aa) (Homo sapiens, UniProt Q92993)
Sequence (Q92993 221-512): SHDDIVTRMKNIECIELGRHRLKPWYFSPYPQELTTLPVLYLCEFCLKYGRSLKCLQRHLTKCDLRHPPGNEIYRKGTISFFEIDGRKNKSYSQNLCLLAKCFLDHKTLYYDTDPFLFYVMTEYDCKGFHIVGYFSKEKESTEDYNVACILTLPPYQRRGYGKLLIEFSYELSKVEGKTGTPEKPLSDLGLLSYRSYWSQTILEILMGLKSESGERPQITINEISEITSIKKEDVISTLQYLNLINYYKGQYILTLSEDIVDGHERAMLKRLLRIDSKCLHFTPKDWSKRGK
RECORDED_METRIC: pIC50
Scale for pIC50: -log10 of concentration given in mol/L; no unit attached.

CAT-Tip60 (221-512 aa) (Homo sapiens, UniProt Q92993) pIC50 of CC(C)(COP(=O)(O)OP(=O)(O)OC[C@H]1O[C@@H](n2cnc3c(N)ncnc32)[C@H](O)[C@@H]1OP(=O)(O)O)[C@@H](O)C(=O)NCCC(=O)NCCS [CoASH] is 4.80

----------
STUDY_TARGET: PCAF HAT domain (493-658) (Homo sapiens)
Sequence (Q92831 493-658): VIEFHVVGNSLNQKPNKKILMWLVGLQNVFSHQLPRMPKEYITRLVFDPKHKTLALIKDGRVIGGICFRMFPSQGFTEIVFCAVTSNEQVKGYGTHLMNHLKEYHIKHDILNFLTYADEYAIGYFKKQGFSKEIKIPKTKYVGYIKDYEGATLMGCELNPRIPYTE
RECORDED_METRIC: pIC50
Scale for pIC50: -log10 of concentration given in mol/L; no unit attached.

The reported pIC50 of the compound CC(C)(COP(=O)(O)OP(=O)(O)OC[C@H]1O[C@@H](n2cnc3c(N)ncnc32)[C@H](O)[C@@H]1OP(=O)(O)O)[C@@H](O)C(=O)NCCC(=O)NCCS was 5.08
